# condition set: in cyclohexanol, 342.15 K
value type: solubility (mole fraction)
Write the number on its own, no unit after it.

Given item O=C(O)CCCC(=O)O , the value recorded as its solubility (mole fraction) is 0.545

====

# condition set: in cyclohexanone, 294 K
value type: solubility (mole fraction)
I'd appreciate a reply containing only the number, no unit.

solubility (mole fraction) recorded for this molecule, O=C(O)CCCC(=O)O , is 0.161

====

# condition set: in acetic acid, 313.64 K
value type: solubility (mole fraction)

Record O=C(O)CCCC(=O)O , field solubility (mole fraction): 0.28

====

# condition set: in cyclohexanone, 317.54 K
value type: solubility (mole fraction)
Form field (numeric): enter value without unit.

The molecule O=C(O)CCCC(=O)O showed solubility (mole fraction) equal to 0.307
